Catalogue of IC50 values
Target: T1, GLP-1 receptor
T1 chain: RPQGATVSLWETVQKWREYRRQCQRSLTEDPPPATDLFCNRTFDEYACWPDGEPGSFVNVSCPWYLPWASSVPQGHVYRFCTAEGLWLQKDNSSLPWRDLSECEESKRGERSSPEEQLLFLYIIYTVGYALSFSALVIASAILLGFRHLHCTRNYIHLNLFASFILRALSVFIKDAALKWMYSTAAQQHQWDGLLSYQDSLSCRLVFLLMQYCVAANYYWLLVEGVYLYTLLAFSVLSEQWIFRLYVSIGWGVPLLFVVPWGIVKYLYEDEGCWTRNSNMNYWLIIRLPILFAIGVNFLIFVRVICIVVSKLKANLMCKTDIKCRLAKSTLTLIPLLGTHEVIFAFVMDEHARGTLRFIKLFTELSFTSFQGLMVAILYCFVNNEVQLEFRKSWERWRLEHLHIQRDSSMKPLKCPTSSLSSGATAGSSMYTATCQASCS
Assay: competition with 125I-GLP-1 on CHO/GLP-1R cells; polypeptide digested with thrombin and DPP IV first
measurementType: IC50

binder="PLPHSHRAHSLPPFNPRGPHAEGTFTSDVSSYLEGQAAKEFIAWLVKGRG (ABP-LK-GLP fusion polypeptide; also called ABP-LK-GLP) [DP6.2 fusion polypeptide]" measurementtype=IC50 observedresult="2.1 nM"
binder="PNICLPRWGCLWDFNPRGSHAEGTFTSDVSSYLEGQAAKEFIAWLVKGRG (ABP-LK-GLP fusion polypeptide; also called ABP-LK-GLP) [DP4.3 fusion polypeptide]" measurementtype=IC50 observedresult="2.1 nM"
binder="SLLHWTHKIPALFNPRGPHAEGTFTSDVSSYLEGQAAKEFIAWLVKGRG (ABP-LK-GLP fusion polypeptide; also called ABP-LK-GLP) [M8.2 fusion polypeptide]" measurementtype=IC50 observedresult="1.9 nM"
binder="LPHSHRAHSLPPFNPRGPHAEGTFTSDVSSYLEGQAAKEFIAWLVKGRG (ABP-LK-GLP fusion polypeptide; also called ABP-LK-GLP) [M6.2 fusion polypeptide]" measurementtype=IC50 observedresult="2.3 nM"
binder="SLLHWTHKIPALFNPRGSHAEGTFTSDVSSYLEGQAAKEFIAWLVKGRG (ABP-LK-GLP fusion polypeptide; also called ABP-LK-GLP) [M8.3 fusion polypeptide]" measurementtype=IC50 observedresult="2.2 nM"
binder="DICLPRWGCLWEFNPRGPHAEGTFTSDVSSYLEGQAAKEFIAWLVKGRG (ABP-LK-GLP fusion polypeptide; also called ABP-LK-GLP) [M3.2 fusion polypeptide]" measurementtype=IC50 observedresult="2.1 nM"
